Entries and their Fibroblast cells in test area
- Tested on: hairless rat skin burn wound
- Experiment description: In vivo wound healing, TCA chemically induced skin burn wound
- Condition description: rat model, TCA burn treated by peptide
No end group written: not given here.

Substance: FALKALKKLKKALKKAL-NH2 [P153]
Experimental target: hairless rat skin burn wound
Fibroblast cells in test area: 350 % of normal skin

Please give the documented Fibroblast cells in test area of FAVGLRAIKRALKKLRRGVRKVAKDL-NH2 [P157, reference compound]
450 % of normal skin

Please give the documented Fibroblast cells in test area of FAKLLAKALKKAL-NH2 [P102, FAKLLAKALKKAL-NH2]
220 % of normal skin

Please give the documented Fibroblast cells in test area of MPKEKVFLKIEKMGRNIRN-NH2 [P107, reference compound]
420 % of normal skin
